Reference source: patent US20250313625A1

Target: T1, mFc tagged human LAG3 ECD recombinant protein (human, UniProt P18627 23-450)
T1 construct: extracellular domain; purchased from Biointron; not shown: mouse IgG Fc (mFc) tag
T1 sequence (looked up): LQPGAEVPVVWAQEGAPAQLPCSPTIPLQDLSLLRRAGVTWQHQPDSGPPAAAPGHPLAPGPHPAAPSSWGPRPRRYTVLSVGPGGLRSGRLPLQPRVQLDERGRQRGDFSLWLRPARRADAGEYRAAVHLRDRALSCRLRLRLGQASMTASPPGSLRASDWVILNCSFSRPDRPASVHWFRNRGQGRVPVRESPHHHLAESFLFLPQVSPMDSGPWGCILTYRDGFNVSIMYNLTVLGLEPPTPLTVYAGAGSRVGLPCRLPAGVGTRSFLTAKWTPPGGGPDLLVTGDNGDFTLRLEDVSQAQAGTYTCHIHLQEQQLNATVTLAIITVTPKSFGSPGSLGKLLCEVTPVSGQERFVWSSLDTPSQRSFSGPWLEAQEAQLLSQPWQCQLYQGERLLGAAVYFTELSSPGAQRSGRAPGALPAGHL
Test: competitive FACS: mFc tagged human LAG3 ECD binding to MHC II on Raji cells
observation.type: %Blocking at 4 nM (%)

binder: hu021.279 (antibody, V domains shown, humanized from 021c; also called hu21.279) VH: QIQLQESGPGLVKPGQTLSLTCTVSGYSITSGYYWTWIRQHPGNKLEWIGDISYDAGNNYNPSLKNRITISRDTSKNQFSLKLSSVTAEDTATYYCARDITLTGAMDYWGQGTTVTVSS VL: EIVLTQSPATLSLSPGERATLSCRASESVDNYGISFMHWYQQKPGQAPRLLIYRASNLESGIPARFSGSGSGTDFTLTISSLEPEDFAVYYCQQSNKDPYTFGQGTKLEIK
value.measured: 40.3
//
binder: hu029.40 (antibody, V domains shown, humanized from 029c) VH: QVQLVESGGGLVKPGGSLRLSCAASGFTFSSYAMSWVRQAPGKRLEWVAYVTSGGDYIYYADTVKGRFTISRDDAKNSLYLQMNSLRAEDTAMYYCTRVAYDYEWYFDVWGQGALVTVSS VL: DIQMTQSPSSVSTSVGDRVTITCKASQDVTTAVAWYQQKPGKAPKLLIYSASYRYTGVPSRFSGSGSGTDFTFTISSVQPEDFATYYCQQHDSSPWTFGQGTKLEIK
value.measured: 43.4
//
binder: hu029.55 (antibody, V domains shown, humanized from 029c) VH: QVQLVESGGGLVKPGGSLRLSCAASGFTFSSYAMSWIRQAPGKGLEWVSYVTSGGDYIYYADTVKGRFTISRDDAKNSLYLQMNSLRAEDTAVYYCTRVAYDYEWYFDVWGQGTLVTVSS VL: DIQMTQSPSSVSASVGDRVTITCKASQDVTTAVAWYQQKPGKAPKLLIYSASYRYTGVPSRFSGSGSGTDFTLTISSLQPEDFATYYCQQHDSSPWTFGQGTKLEIK
value.measured: 37.5
//
binder: hu029.53 (antibody, V domains shown, humanized from 029c) VH: QVQLVESGGGLVKPGGSLRLSCAASGFTFSSYAMSWIRQAPGKGLEWVAYVTSGGDYIYYADTVKGRFTISRDDAKNSLYLQMNSLRAEDTAMYYCTRVAYDYEWYFDVWGQGALVTVSS VL: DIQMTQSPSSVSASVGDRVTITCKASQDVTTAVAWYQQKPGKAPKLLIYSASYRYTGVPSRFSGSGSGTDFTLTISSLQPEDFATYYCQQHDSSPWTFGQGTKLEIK
value.measured: 31.9
//
binder: hu021.212 (antibody, V domains shown, humanized from 021c) VH: QVQLQESGPGLVKPSQTLSLTCTVSGYSISSGYYWNWIRQHPGNKLEWIGDISYEGGNNYNPSLKNRVTISRDTSKNQFSLKLSSVTAADTAVYYCARDITLTGAMDYWGQGTTVTVSS VL: EIVLTQSPATLSLSPGERATLSCRASESVDNYGISFMHWYQQKPGQAPRLLIYRASNLETGIPARFSGSGSRTDFTLTISSLEPEDFAVYYCQQSNKDPYTFGQGTKLEIK
value.measured: 23.9
